Target: T1, human EpCAM-mFc (human)
T1 chain: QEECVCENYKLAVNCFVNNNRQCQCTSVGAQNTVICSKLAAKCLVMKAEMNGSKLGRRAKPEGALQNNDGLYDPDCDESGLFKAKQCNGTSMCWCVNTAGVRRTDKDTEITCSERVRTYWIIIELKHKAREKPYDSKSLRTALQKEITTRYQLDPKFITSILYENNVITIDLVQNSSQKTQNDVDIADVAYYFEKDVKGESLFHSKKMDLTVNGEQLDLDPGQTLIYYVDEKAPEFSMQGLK
Experiment: ELISA
measurement_type: pKd
Expect pKd as a plain number equal to -log10 of the molar concentration.

Need pKd, item EP03-3014 (1361-H) (antibody) chain 1: QVQLVQSGAEVKKPGASVKVSCKASGYTFTNYHIHWVRQAPGQRLEYIGWIYPGNVYIQYNEKFKGRATLTADKSASTAYMELSSLRSEDTAVYYCARDGPWFAYWGQGTLVTVSS chain 2: QGQSGQGHYCHSRTDTITHCNAGGGSSGGAVGLLAPPGGLSGRSDNIGGSDIVLTQTPLSLSVTPGQPASISCRSSRSLLHSDGFTYLYWFLQKPGQSPQLLIYQTSNLASGVPDRFSSSGSGTDFTLKISRVEAEDVGVYYCAQNLELPNTFGQGTKLEIK 8.40

Need pKd, item EP105-3014 (1361-H) (antibody) chain 1: QVQLVQSGAEVKKPGASVKVSCKASGYTFTNYHIHWVRQAPGQRLEYIGWIYPGNVYIQYNEKFKGRATLTADKSASTAYMELSSLRSEDTAVYYCARDGPWFAYWGQGTLVTVSS chain 2: QGQSGQGDCTGYSPSVLPACRVGGGSSGGAVGLLAPPGGLSGRSDNIGGSDIVLTQTPLSLSVTPGQPASISCRSSRSLLHSDGFTYLYWFLQKPGQSPQLLIYQTSNLASGVPDRFSSSGSGTDFTLKISRVEAEDVGVYYCAQNLELPNTFGQGTKLEIK 6.70

Need pKd, item EP107-3-3014 (1361-H) (antibody) chain 1: QVQLVQSGAEVKKPGASVKVSCKASGYTFTNYHIHWVRQAPGQRLEYIGWIYPGNVYIQYNEKFKGRATLTADKSASTAYMELSSLRSEDTAVYYCARDGPWFAYWGQGTLVTVSS chain 2: QGQSGQGSLPCSYMHPYCFYNSGGGSSGGAVGLLAPPGGLSGRSDNIGGSDIVLTQTPLSLSVTPGQPASISCRSSRSLLHSDGFTYLYWFLQKPGQSPQLLIYQTSNLASGVPDRFSSSGSGTDFTLKISRVEAEDVGVYYCAQNLELPNTFGQGTKLEIK 7.36

Need pKd, item EP106-3014 (1361-H) (antibody) chain 1: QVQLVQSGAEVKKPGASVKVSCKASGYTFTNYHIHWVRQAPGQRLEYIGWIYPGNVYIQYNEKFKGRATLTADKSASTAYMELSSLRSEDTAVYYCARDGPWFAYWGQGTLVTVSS chain 2: QGQSGQGFCSGYSPSVLPSCLMGGGSSGGAVGLLAPPGGLSGRSDNIGGSDIVLTQTPLSLSVTPGQPASISCRSSRSLLHSDGFTYLYWFLQKPGQSPQLLIYQTSNLASGVPDRFSSSGSGTDFTLKISRVEAEDVGVYYCAQNLELPNTFGQGTKLEIK 6.46

Need pKd, item EP107-1-3014 (1361-H) (antibody) chain 1: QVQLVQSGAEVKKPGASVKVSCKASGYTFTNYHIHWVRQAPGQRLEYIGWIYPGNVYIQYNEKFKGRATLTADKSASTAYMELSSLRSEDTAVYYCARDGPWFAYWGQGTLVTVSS chain 2: QGQSGQGSRPCSYMHPYCFYNSGGGSSGGAVGLLAPPGGLSGRSDNIGGSDIVLTQTPLSLSVTPGQPASISCRSSRSLLHSDGFTYLYWFLQKPGQSPQLLIYQTSNLASGVPDRFSSSGSGTDFTLKISRVEAEDVGVYYCAQNLELPNTFGQGTKLEIK 7.51
